FYI, the data here is from ChEMBL document CHEMBL1154596.

The following compounds are listed with their measured Ratio Ki values.
Measurement notes: Selectivity ratio of Ki for rat kappa opioid receptor to Ki for mouse delta opioid receptor
Respond with the number and no other words.

{"Smiles entry": "CC(C)C[C@H](NC(=O)[C@H](Cc1ccccc1)NC(=O)CNC(=O)CNC(=O)[C@H](Cc1ccc(O)cc1)NCc1ccccc1)C(=O)N[C@@H](CCCNC(=N)N)C(=O)N[C@@H](CCCNC(=N)N)C(=O)N[C@H](C)C(=O)N[C@@H](CCCNC(=N)N)C(=O)N1CCC[C@H]1C(=O)N[C@@H](CCCCN)C(N)=O", "Ratio Ki": 80}
{"Smiles entry": "CC(C)C[C@H](NC(=O)[C@H](Cc1ccccc1)NC(=O)CNC(=O)CNC(=O)[C@H](Cc1ccc(O)cc1)NCc1ccccc1)C(=O)N[C@@H](CCCNC(=N)N)C(=O)N[C@@H](CCCNC(=N)N)C(=O)N[C@H](C)C(=O)N[C@@H](CCCNC(=N)N)C(=O)N1CCC[C@@H]1C(=O)N[C@@H](CCCCN)C(N)=O", "Ratio Ki": 109}
{"Smiles entry": "CC(C)C[C@H](NC(=O)[C@H](Cc1ccccc1)NC(=O)CNC(=O)CNC(=O)[C@H](Cc1ccc(O)cc1)NCc1ccccc1)C(=O)N[C@@H](CCCNC(=N)N)C(=O)N(C)[C@@H](CCCNC(=N)N)C(=O)N[C@H](C)C(=O)N[C@@H](CCCNC(=N)N)C(=O)N1CCC[C@H]1C(=O)N[C@@H](CCCCN)C(N)=O", "Ratio Ki": 147}
{"Smiles entry": "CC(C)C[C@H](NC(=O)[C@H](Cc1ccccc1)NC(=O)CNC(=O)CNC(=O)[C@H](Cc1ccc(O)cc1)NCc1ccccc1)C(=O)N[C@@H](CCCNC(=N)N)C(=O)N(C)[C@@H](CCCNC(=N)N)C(=O)N[C@H](C)C(=O)N[C@@H](CCCNC(=N)N)C(=O)N1CCC[C@@H]1C(=O)N[C@@H](CCCCN)C(N)=O", "Ratio Ki": 151}

Turning to the following compound.
Query :: Ratio Ki lookup needed for CC(=O)NC[C@H](NC(=O)[C@H](CCCNC(=N)N)NC(=O)[C@H](CCCNC(=N)N)NC(=O)[C@@H](CC(N)=O)NC(=O)[C@H](Cc1ccccc1)NC(=O)CNC(=O)CNC(=O)[C@H](Cc1ccc(O)cc1)NCc1ccccc1)C(=O)N[C@@H](CCCNC(=N)N)C(=O)N1CCC[C@H]1C(=O)N[C@@H](CCCCN)C(N)=O , thanks.
Result :: 149

----------
The following compounds are listed with their measured Ratio Ki values.
Organism: Rattus norvegicus
Measurement notes: Selectivity ratio of Ki for rat kappa opioid receptor to Ki for rat mu opioid receptor
Respond with the number and no other words.

Some solved entries appear below for comparison.
{"Smiles entry": "CC(C)C[C@H](NC(=O)[C@H](Cc1ccccc1)NC(=O)CNC(=O)CNC(=O)[C@H](Cc1ccc(O)cc1)NCc1ccccc1)C(=O)N[C@@H](CCCNC(=N)N)C(=O)N[C@@H](CCCNC(=N)N)C(=O)N[C@H](C)C(=O)N[C@@H](CCCNC(=N)N)C(=O)N1CCC[C@H]1C(=O)N[C@@H](CCCCN)C(N)=O", "Ratio Ki": 11}
{"Smiles entry": "CC(C)C[C@H](NC(=O)[C@H](Cc1ccccc1)NC(=O)CNC(=O)CNC(=O)[C@H](Cc1ccc(O)cc1)NCc1ccccc1)C(=O)N[C@@H](CCCNC(=N)N)C(=O)N[C@@H](CCCNC(=N)N)C(=O)N[C@H](C)C(=O)N[C@@H](CCCNC(=N)N)C(=O)N1CCC[C@@H]1C(=O)N[C@@H](CCCCN)C(N)=O", "Ratio Ki": 15}
{"Smiles entry": "CC(C)C[C@H](NC(=O)[C@H](Cc1ccccc1)NC(=O)CNC(=O)CNC(=O)[C@H](Cc1ccc(O)cc1)NCc1ccccc1)C(=O)N[C@@H](CCCNC(=N)N)C(=O)N(C)[C@@H](CCCNC(=N)N)C(=O)N[C@H](C)C(=O)N[C@@H](CCCNC(=N)N)C(=O)N1CCC[C@H]1C(=O)N[C@@H](CCCCN)C(N)=O", "Ratio Ki": 14}

Query :: Ratio Ki lookup needed for CC(C)C[C@H](NC(=O)[C@H](Cc1ccccc1)NC(=O)CNC(=O)CNC(=O)[C@H](Cc1ccc(O)cc1)NCc1ccccc1)C(=O)N[C@@H](CCCNC(=N)N)C(=O)N(C)[C@@H](CCCNC(=N)N)C(=O)N[C@H](C)C(=O)N[C@@H](CCCNC(=N)N)C(=O)N1CCC[C@@H]1C(=O)N[C@@H](CCCCN)C(N)=O , thanks.
Result :: 16

Query :: Ratio Ki lookup needed for CC(=O)NC[C@H](NC(=O)[C@H](CCCNC(=N)N)NC(=O)[C@H](CCCNC(=N)N)NC(=O)[C@@H](CC(N)=O)NC(=O)[C@H](Cc1ccccc1)NC(=O)CNC(=O)CNC(=O)[C@H](Cc1ccc(O)cc1)NCc1ccccc1)C(=O)N[C@@H](CCCNC(=N)N)C(=O)N1CCC[C@H]1C(=O)N[C@@H](CCCCN)C(N)=O , thanks.
Result :: 25
